Tested on: 186277-243-T-J2-PDC complex spheroid viability;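 note: spheroids exposed to compounds for seven days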
assay overview: Anticancer human tumor 186277-243-T-J2-PDC patient-derived colon adenocarcinoma cell line growth inhibition [POLQ]
condition set: curve of first compound; second compound 0.0316 µM
pIC50: −log10 of the molar value.
Outcome label depends on pIC50 relative to 6: at/above gives fulfilled, below gives not fulfilled.

[in] // inclusive: pIC50 at least 6? input: COc1cc(C2c3cc4c(cc3C(OC3OC5COC(C)OC5C(O)C3O)C3COC(=O)C23)OCO4)cc(OC)c1O (centres undefined) + Nc1ccc(C#CCN(C(=O)Cc2ncc(C(F)(F)F)cc2C(F)(F)F)c2ccc(F)cc2)nn1
[out] not fulfilled

[in] // inclusive: pIC50 at least 6? input: COc1cccc2c1C(=O)c1c(O)c3c(c(O)c1C2=O)CC(O)(C(=O)CO)CC3OC1CC(N)C(O)C(C)O1 (centres undefined) + Nc1ccc(C#CCN(C(=O)Cc2ncc(C(F)(F)F)cc2C(F)(F)F)c2ccc(F)cc2)nn1
[out] fulfilled

[in] // inclusive: pIC50 at least 6? input: CCCS(=O)(=O)Nc1ccc(F)c(C(=O)c2c[nH]c3ncc(-c4ccc(Cl)cc4)cc23)c1F + COC1C(OC(N)=O)C(O)C(Oc2ccc3c(O)c(NC(=O)c4ccc(O)c(CC=C(C)C)c4)c(=O)oc3c2C)OC1(C)C
[out] not fulfilled

[in] // inclusive: pIC50 at least 6? input: CC1COCCN1c1cc(C2(S(C)(=N)=O)CC2)nc(-c2ccnc3[nH]ccc23)n1 (centres undefined) + Nc1ccc(C#CCN(C(=O)Cc2ncc(C(F)(F)F)cc2C(F)(F)F)c2ccc(F)cc2)nn1
[out] not fulfilled

[in] // inclusive: pIC50 at least 6? input: CC1COCCN1c1cc(C2(O)CC3CCC(C2)O3)c2cnn(-c3ccn[nH]3)c2n1 (centres undefined) + COC1C(OC(N)=O)C(O)C(Oc2ccc3c(O)c(NC(=O)c4ccc(O)c(CC=C(C)C)c4)c(=O)oc3c2C)OC1(C)C
[out] fulfilled

[in] // inclusive: pIC50 at least 6? input: CCc1c2c(nc3ccc(O)cc13)-c1cc3c(c(=O)n1C2)COC(=O)[C@]3(O)CC + Nc1ccc(C#CCN(C(=O)Cc2ncc(C(F)(F)F)cc2C(F)(F)F)c2ccc(F)cc2)nn1
[out] fulfilled

[in] // inclusive: pIC50 at least 6? input: CC1COCCN1c1cc(-c2ccnn2C)c2ccnc(-c3ccn[nH]3)c2n1 (centres undefined) + Nc1ccc(C#CCN(C(=O)Cc2ncc(C(F)(F)F)cc2C(F)(F)F)c2ccc(F)cc2)nn1
[out] fulfilled

[in] // inclusive: pIC50 at least 6? input: COc1ccc([C@@H](O)c2cc(-c3ncnc4cc(N5CCOCC5)ccc34)c(F)cc2Cl)nn1 + Nc1ccc(C#CCN(C(=O)Cc2ncc(C(F)(F)F)cc2C(F)(F)F)c2ccc(F)cc2)nn1
[out] not fulfilled

[in] // inclusive: pIC50 at least 6? input: O=c1[nH]cc(F)c(=O)[nH]1 + Nc1ccc(C#CCN(C(=O)Cc2ncc(C(F)(F)F)cc2C(F)(F)F)c2ccc(F)cc2)nn1
[out] not fulfilled

[in] // inclusive: pIC50 at least 6? input: COc1cccc(OCCCN)c1-c1cc(Nc2cnc(C#N)cn2)n[nH]1 + Cc1cccc(N(C)C(=O)C2C(O)CCN2c2nc(C)cc(C(F)(F)F)c2C#N)c1
[out] fulfilled

[in] // inclusive: pIC50 at least 6? input: CC(C)n1c(=O)n(C)c2cnc3cc(F)c(-c4ccc(OCCCN5CCCCC5)nc4)cc3c21 + COC1C(OC(N)=O)C(O)C(Oc2ccc3c(O)c(NC(=O)c4ccc(O)c(CC=C(C)C)c4)c(=O)oc3c2C)OC1(C)C
[out] not fulfilled
